# System: UACC-257 melanoma
# Assay notes: NCI-60 one-dose screen, 48 h (100 = growth as untreated, 0 = no growth, -100 = all killed)
# Study conditions: 10 µM unless noted
This is part of a sample that, as a whole, favours compounds with a hit. Of some 83,000 tested, about 20% had one in any assay.
Attribute measured: growth (%)
Give just the number in %; leave the unit off.

Example entries and their recorded answers appear below.
COc1ccc2c(c1)nnn1c3ncccc3c(N=O)c21 : -10
COc1ccc(-c2nn(-c3ccc(NC(=O)Nc4ccc(Cl)c(Cl)c4)cc3)cc2-c2ccncc2)cc1Cl : 11.9
c1ccc(OCC[P+](c2ccccc2)(c2ccccc2)c2ccccc2)cc1 : -4.91
C=C1C(=O)O[C@H]2[C@H]1CC/C(COC(=O)n1ccnc1C)=C\CC[C@@]1(C)O[C@@H]21 : 75.1
O=C(/C=C/c1ccccc1)Oc1ccc(/C=C/c2cc(OC(=O)/C=C/c3ccccc3)cc(OC(=O)/C=C/c3ccccc3)c2)cc1 : 81.7
COc1cc(Br)c(-c2nc(-c3ccccc3)c(-c3ccccc3)n2Cc2ccccc2)cc1OC : 59.2
COc1cccc(-c2nc3sccn3c2-c2ccnc(NCCNC(=O)Nc3cccc(C(F)(F)F)c3)n2)c1 : 69.5
COc1cc(CN(c2ccc(Cl)cc2)C2OC(=O)c3ccccc32)cc(OC)c1OC (stereo not given) : 74.7

Problem: Tell me its growth given `COc1ccc(CNc2nc3ccccc3c3c(=O)c4ccccc4sc23)cc1OC` as the entry.
Result: 88.6

---

# Tested on: M14 melanoma
# Assay notes: NCI-60 one-dose screen, 48 h
# Study conditions: 10 µM unless noted
About 83,000 compounds went through this panel and 20% of them were active in at least one assay; those are over-represented in the sample as a whole. Active and inactive are the calls of the source. Rule for the calls: active = growth percent below 10; inactive = the rest.
Allowed answers: active, inactive

Answered cases to consult:
COc1cccc(C2CC(c3cc(OC)c(OC)c(OC)c3)=NN2)c1 (stereo unspecified) : inactive
COc1cc(/C=C/C(=O)c2ccc(Oc3ncnc4ccccc34)cc2)cc(OC)c1OC : inactive
COc1ccc(Cl)cc1NC(=O)c1cc2c([nH]1)-c1nc(NC(=O)C(C)C)sc1CC2 : inactive

Problem: What did this assay record as the result for `COc1ccc2c(c1)nnc1c3cccnc3[nH]c21` ?
Result: active

Problem: What did this assay record as the result for `CO[C@H]1/C=C/C=C/C=C/C[C@H](OC(=O)[C@@H](C)NC(=O)C2CCCCC2)[C@H](C)[C@@H](O)/C(C)=C\CCC2=CC(=O)C=C(NC(=O)C1)C2=O` ?
Result: active

Problem: What did this assay record as the result for `O=C(O)c1cccc(S(=O)(=O)c2ccccc2)c1` ?
Result: inactive

---

Recorded growth values for a group of molecules are listed next.
# Test system: RXF 393 renal
# Assay notes: NCI-60 one-dose screen, 48 h (100 = growth as untreated, 0 = no growth, -100 = all killed)
# Study conditions: 10 µM unless noted
About 83,000 compounds went through this panel and 20% of them were active in at least one assay; those are over-represented in the sample as a whole.
Give just the number in %; leave the unit off.

Example entries and their recorded answers appear below.
Cc1ccc(-c2nc3c(N=Nc4ccc(S(N)(=O)=O)cc4)c(N)nn3c(N)c2C#N)cc1 : 27.9
c1cncc(-c2nc3ccccc3[nH]2)c1 : 94.6
O=C1COc2ccccc2C(=O)N1CCCCN1CCCCC1 : 118
COc1ccc(-c2nnc(NC(=O)CN3CCN(c4cc5c(cc4F)c(=O)c(C(=O)O)cn5C4CC4)CC3)s2)cc1OC : 105
O=C1/C(=C/c2cccc3cnccc23)Cc2cc(F)ccc21 : 112

Problem: Tell me its growth given `COc1ccccc1S(=O)(=O)Nc1ccc2c3c(cc(-c4cnn(C)c4)nc13)C(=O)N2C` as the entry.
Result: 40.2

Problem: Tell me its growth given `COc1ccc(-c2cc(-c3nnc(SC/C(=N\O)c4ccccc4)n3-c3ccccc3)c3ccccc3n2)cc1` as the entry.
Result: 117

Problem: Tell me its growth given CCC1S/C(=N\N=C(/C)c2ccco2)N(c2ccccc2)C1=O (stereo not given) as the entry.
Result: 103

Problem: Tell me its growth given `Nc1ncnc2c1c(-c1ccc(Oc3ccccc3)cc1)nn2C[C@H]1SSC[C@H]1O` as the entry.
Result: -4.66

Problem: Tell me its growth given `Cc1ccc[n+](CC(=O)c2cccc3ccccc23)c1` as the entry.
Result: 105

Problem: Tell me its growth given `CN(C)c1ccc(/C=N/n2c(-c3cc(F)c(Cl)cc3Cl)nn(CN3CCOCC3)c2=S)cc1` as the entry.
Result: 110
